Target: Plasmodium falciparum hypoxanthine-guanine-xanthine phosphoribosyltransferase (PfHGXPRT) (Plasmodium falciparum)
Construct: gene PF3D7_1012400; recombinant, N-terminal His6 tag (pET28-a), expressed in E. coli BL21 (DE3)
Sequence (Q8IJS1 entry or part of it): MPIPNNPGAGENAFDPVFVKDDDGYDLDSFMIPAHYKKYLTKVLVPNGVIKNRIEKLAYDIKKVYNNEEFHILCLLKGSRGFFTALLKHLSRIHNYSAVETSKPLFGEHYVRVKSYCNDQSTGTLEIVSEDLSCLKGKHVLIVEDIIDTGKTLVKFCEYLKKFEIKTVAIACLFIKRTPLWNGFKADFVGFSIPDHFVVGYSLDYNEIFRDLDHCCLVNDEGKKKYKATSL
Experiment: microscale thermophoresis (MST) with labelled His-tagged protein; UV-Vis spectral change
Assay type: binding
pKd: −log10 of the molar value.

- COMPOUND: "CC(=O)O[C@H]1CC[C@]2(C)[C@H]3CC=C4[C@@H]5[C@@H](C)[C@H](C)CC[C@]5(C(=O)O)CC[C@@]4(C)[C@]3(C)CC[C@H]2C1(C)C [UAA, ursolic acid acetate]"
  pKd: 5.55

From: paper PMC6995562
